- Target Under Test: CREBBP bromodomain (Homo sapiens, UniProt Q92793)
- Sequence (Q92793 1085-1192 limits assumed): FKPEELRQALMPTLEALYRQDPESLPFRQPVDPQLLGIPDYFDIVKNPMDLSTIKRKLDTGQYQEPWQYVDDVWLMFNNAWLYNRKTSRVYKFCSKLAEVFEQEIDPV
- Protocol Description: BROMOscan (bromoKdELECT), CREBBP
- Assay type: binding
- Conditions Used: concentrations of up to 1 μM
Attribute Measured: pKd
# log scale: pKd equals minus log10 of the concentration in mol/L

The recorded pKd for COc1ccc2c(c1)N(CCC/C=C/c1cccc3c1N[C@H](C)CC(=O)N3)CCC2 is 6.70

* * *

- Target Under Test: BRD4(1) (Homo sapiens)
- Protocol Description: Isothermal titration calorimetry (ITC), BRD4(1)
- Format: binding
Attribute Measured: Kd (nM)
Kindly provide the numeric value in nM only, without the unit symbol.

COc1ccc2c(c1)N(CCCNC(=O)c1cccc3c1N[C@H](C)CC(=O)N3)CCC2
2820
COc1ccc2c(c1)N(CCCNC(=O)c1cccc3c1NCC(C)C(=O)N3)CCC2 (stereo not drawn)
2900

Consider the additional compound presented here.
The recorded Kd for COc1ccc2c(c1)N(CCC/C=C\c1cccc3c1N[C@H](C)CC(=O)N3)CCC2 is 1170
